System: HeLa cells
Test: MTS cell proliferation and/or cytotoxicity assay
Format: cell-based, Human
Conditions: Homo sapiens, HeLa, 72 h, concentration at which 50% of antiproliferative cell response is seen; 3 days incubation; read-out: MTS Data Hella
Measurement Type: IC50 (nM)
Output spec: scalar in nM, unitless text.

- Molecule: "O=C(NCCN1CCCC1)c1cn2c3c(c(N4CCC(c5cnccn5)C4)c(F)cc3c1=O)Oc1ccccc1-2 (stereo not shown)"
  Target Or Test System: "HeLa cells"
  Unit Label: "nM"
  Numeric Readout: 600
- Molecule: "CC(=O)N[C@@H]1CCC(c2c(F)cc3c(=O)c(C(=O)NCCN4CCCC4)cn4c3c2Oc2cc3c(cc2-4)oc2ccccc23)C1 (stereo partly shown)"
  Target Or Test System: "HeLa cells"
  Unit Label: "nM"
  Numeric Readout: 3500
- Molecule: "NC(N)=NCCCCNC(=O)c1cn2c3c(c(N4CC[C@@H](N)C4)c(F)cc3c1=O)Oc1cc3ccccc3cc1-2"
  Target Or Test System: "HeLa cells"
  Unit Label: "nM"
  Numeric Readout: 580
- Molecule: "CN1CCN(CCCNC(=O)c2cn3c4c(c(N5CCC(N)C5)c(F)cc4c2=O)Oc2cc4c(cc2-3)oc2ccccc24)CC1 (stereo not shown)"
  Target Or Test System: "HeLa cells"
  Unit Label: "nM"
  Numeric Readout: 350
- Molecule: "CN1CCCC1CCNC(=O)c1cn2c3cc4c(cc3oc3c(NCCC5CCCN5C)c(F)cc(c1=O)c32)c(=O)c1ccccc14 (stereo not shown)"
  Target Or Test System: "HeLa cells"
  Unit Label: "nM"
  Numeric Readout: 2900

(Q) Missing value: IC50, HeLa cells, entry CN1CCCC1CCNC(=O)c1cn2c3c(c(NCC4(O)CCCCC4)c(F)cc3c1=O)Oc1cc3ccccc3cc1-2 (stereo not shown) . Fill in?
(A) 240

(Q) What would you report for `CN(C)CCCCNC(=O)c1cn2c3c(c(N4CC[C@H](N)C4)c(F)cc3c1=O)Oc1ccccc1-2` ?
(A) 460

* * *

Molecular target: c-Myc template DNA (c-myc quadruplex)
Experiment: Quadruplex binding / stop assay (Taq polymerase arrest, capillary electrophoresis)
Conditions: read-out: Stop Data c-Myc μM; concentration at which 50% of the DNA was arrested (arrested:full-length 1:1)
Measurement Type: IC50 (µM)
Output spec: scalar in µM, unitless text.

Use these answered entries as a reference point.
- Molecule: "CN(C)CCCCNc1c(F)cc2c(=O)c(C(=O)NCCN3CCOCC3)cn3c4cc5c(cc4oc1c23)c(=O)c1ccccc15"
  IC50 [µM]: 0.375
- Molecule: "NC1CCN(c2c(F)cc3c(=O)c(C(=O)NC4CCN(Cc5ccccc5)CC4)cn4c3c2Oc2cc3ccccc3cc2-4)C1 (stereo not shown)"
  IC50 [µM]: 1.75
- Molecule: "Nc1c(F)c(N2CCC(N)C2)c2c3c1c(=O)c(C(=O)O)cn3-c1cc3ccccc3cc1O2 (stereo not shown)"
  IC50 [µM]: 1.75
- Molecule: "CN(C)CCCCNC(=O)c1cn2c3c(c(NCCCCN(C)C)c(F)cc3c1=O)Oc1c-2ccc2ccccc12"
  IC50 [µM]: 0.64

(Q) Missing value: IC50, c-Myc template DNA (c-myc quadruplex), entry `CC(C)(C)OC(=O)N[C@@H]1CCN(c2c(F)cc3c(=O)c(C(=O)NCCN4CCOCC4)cn4c3c2Oc2cc3ccccc3cc2-4)C1` . Fill in?
(A) 2.5

(Q) What would you report for CN1CCCC1CCNC(=O)c1cn2c3c(c(N4CCC(c5cnccn5)C4)c(F)cc3c1=O)Oc1cc3ccccc3cc1-2 (stereo not shown) ?
(A) 0.375

* * *

Biological target: c-Myc template DNA (c-myc quadruplex)
Test: Quadruplex binding / stop assay (Taq polymerase arrest, capillary electrophoresis)
Conditions: read-out: S DATA; Table 1D, stop assay data
pIC50 overview
Hey, just a heads up that pIC50 is the negative log base 10 of the concentration in molar.

- Compound: "O=C(NCCN1CCCC1)c1cn2c3c(c(N4CCC(c5cnccn5)C4)c(F)cc3c1=O)Oc1ccc(Cl)cc1-2 (centres unmarked)"
  Measurement Type: "pIC50"
  Numeric Readout: 5.54
- Compound: "CN1CCCC1CCNC(=O)c1cn2c3c(c(N4CCN(C(=O)OC(C)(C)C)CC4)c(F)cc3c1=O)Oc1cc(Cl)ccc1-2 (centres unmarked)"
  Measurement Type: "pIC50"
  Numeric Readout: 5.00
- Compound: "CN1CCCC1CCNC(=O)c1cn2c3c(c(S(=O)(=O)CCc4cnccn4)c(F)cc3c1=O)Oc1cc3ccccc3cc1-2 (centres unmarked)"
  Measurement Type: "pIC50"
  Numeric Readout: 6.04

(Q) Would you kindly share the measured pIC50 for CN1CCCC1CCNC(=O)c1cn2c3c(c(N4CCC(n5c(=O)[nH]c6ccccc65)CC4)c(F)cc3c1=O)Oc1cc3ccccc3cc1-2 (centres unmarked) ?
(A) 6.00

* * *

Target: c-Myc template DNA (c-myc quadruplex)
Assay: Quadruplex binding / stop assay (Taq polymerase arrest, capillary electrophoresis)
Details: read-out: S DATA; Table 1D, stop assay data
Measurement Type: pIC50
Hey, just a heads up that pIC50 is the negative log base 10 of the concentration in molar.

Use these answered entries as a reference point.
- Molecule: "CC(CNc1c(F)cc2c(=O)c(C(=O)NCCC3CCCN3C)cn3c2c1Oc1cc2ccccc2cc1-3)c1ccccc1 (stereo not shown) [compound 1662]"
  pIC50: 5.76
- Molecule: "NC1CCN(c2c(F)cc3c(=O)c(C(=O)NCC(O)CO)cn4c3c2Oc2cc3ccccc3cc2-4)C1 (stereo not shown) [compound 1704]"
  pIC50: 5.76
- Molecule: "N=C(N)NCCNC(=O)c1cn2c3c(c(N4CC5CCCNC5C4)c(F)cc3c1=O)Oc1cc3ccccc3cc1-2 (stereo not shown) [compound 1646]"
  pIC50: 6.19
- Molecule: "CC(C)N1CCN(c2c(F)cc3c(=O)c(C(=O)NCCN4CCCC4)cn4c3c2Oc2ccc(Cl)cc2-4)CC1 [compound 1798]"
  pIC50: 5.18

Here is another molecule to look at.
(Q) Would you kindly share the measured pIC50 for CN1CCCC1CCNC(=O)c1cn2c3c(c(NCCCN(CCO)CCO)c(F)cc3c1=O)Oc1cc3ccccc3cc1-2 (stereo not shown) [compound 1686] ?
(A) 6.43

* * *

Test system: HeLa cells
Assay: MTS cell proliferation and/or cytotoxicity assay
Format: cell-based, Human
Details: Homo sapiens, HeLa, 72 h, concentration at which 50% of antiproliferative cell response is seen; 3 days incubation; read-out: MTS Data Hella
Measurement Type: IC50 (nM)
Output spec: scalar in nM, unitless text.

(Q) Would you kindly share the measured IC50 for CCN(CC)CCCC(C)NC(=O)c1cn2c3c(c(N4CCC(c5cnccn5)C4)c(F)cc3c1=O)Oc1cc3ccccc3cc1-2 (stereo not shown) [compound 27] ?
(A) 3800

(Q) What would you report for CCN(CC)C1CCN(c2c(F)cc3c(=O)c(C(=O)NCCC4CCCN4C)cn4c3c2Oc2cc3ccccc3cc2-4)C1 (stereo not shown) [compound 105] ?
(A) 2800

(Q) What would you report for N[C@H]1CCN(c2c(F)cc3c(=O)c(C(=O)NCCN4CCOCC4)cn4c5cc6c(cc5oc2c34)c(=O)c2ccccc26)C1 [compound 579] ?
(A) 490

(Q) What would you report for CCN(CC)CCCC(C)NC(=O)c1cn2c3c(c(N4CCC(c5cnccn5)C4)ccc3c1=O)Oc1cc3ccccc3cc1-2 (stereo not shown) [compound 309] ?
(A) 3000

(Q) What would you report for NCCCNC(=O)c1cn2c3c(c(N4CC[C@@H](N)C4)c(F)cc3c1=O)Oc1cc3ccccc3cc1-2 [compound 485] ?
(A) 500

(Q) What would you report for O=C(NCCN1CCCC1)c1cn2c3c(c(NCCCN4CCOCC4)c(F)cc3c1=O)Oc1cc3ccccc3cc1-2 [compound 494] ?
(A) 190

(Q) What would you report for O=C(NCCN1CCOCC1)c1cn2c3c(c(N4CC5CCCNC5C4)c(F)cc3c1=O)Oc1cc3ccccc3cc1-2 (stereo not shown) [compound 566] ?
(A) 30

* * *

IC50 overview
Biological target: c-Myc template DNA (c-myc quadruplex)
Test: Quadruplex binding / stop assay (Taq polymerase arrest, capillary electrophoresis)
Details: read-out: Stop Data c-Myc μM; concentration at which 50% of the DNA was arrested (arrested:full-length 1:1)
Output spec: scalar in µM, unitless text.

Use these answered entries as a reference point.
- Compound: "CN1CCN(CCCNC(=O)c2cn3c4c(c(N5CC[C@@H](N)C5)c(F)cc4c2=O)Oc2cc4ccccc4cc2-3)CC1"
  Target Or Test System: "c-Myc template DNA (c-myc quadruplex)"
  IC50, µM: 0.375
- Compound: "CC(=O)N1CCN(C(=O)c2cn3c4c(c(N5CCC(N)C5)c(F)cc4c2=O)Oc2cc4ccccc4cc2-3)CC1 (centres unmarked)"
  Target Or Test System: "c-Myc template DNA (c-myc quadruplex)"
  IC50, µM: 1.75
- Compound: "O=C(NCCCN1CCOCC1)c1cn2c3c(c(NCCN4CCCC4)ccc3c1=O)Oc1cc3ccccc3cc1-2"
  Target Or Test System: "c-Myc template DNA (c-myc quadruplex)"
  IC50, µM: 1.75
- Compound: "CN1CCCC1CCNC(=O)c1cn2c3c(c(NCCC4CCCN4C)c(F)cc3c1=O)Oc1cc3c(cc1-2)oc1ccccc13 (centres unmarked)"
  Target Or Test System: "c-Myc template DNA (c-myc quadruplex)"
  IC50, µM: 0.75
- Compound: "CC(=O)N[C@@H]1CCN(c2c(F)cc3c(=O)c(C(=O)NCCCN4CCOCC4)cn4c3c2Oc2cc3c(cc2-4)oc2ccccc23)C1"
  Target Or Test System: "c-Myc template DNA (c-myc quadruplex)"
  IC50, µM: 1.75
- Compound: "NC1CCN(c2ccc3c(=O)c(C(=O)O)cn4c3c2Oc2cc3ccccc3cc2-4)C1 (centres unmarked)"
  Target Or Test System: "c-Myc template DNA (c-myc quadruplex)"
  IC50, µM: 1.75

(Q) Would you kindly share the measured IC50 for CC(CNc1c(F)cc2c(=O)c(C(=O)NCCC3CCCN3C)cn3c2c1Oc1cc2ccccc2cc1-3)c1ccccc1 (centres unmarked) ?
(A) 1.75

(Q) What would you report for CN1CCCC1CCNC(=O)c1cn2c3cc4oc5cc([N+](=O)[O-])ccc5[nH]c4cc3oc3c(NCCN4CCOCC4)c(F)cc(c1=O)c32 (centres unmarked) ?
(A) 0.75

(Q) What would you report for CN1CCCC1CCNC(=O)c1cn2c3c(c(N4CC[C@@H](NC(=O)CCN5CCCC5)C4)c(F)cc3c1=O)Oc1cc3c(cc1-2)oc1ccccc13 (some centres unmarked) ?
(A) 0.5

(Q) What would you report for `CN1CCN(CCCNC(=O)c2cn3c4cc5c(cc4oc4c(N6CC[C@H](NC(=O)OC(C)(C)C)C6)c(F)cc(c2=O)c43)c(=O)c2ccccc25)CC1` ?
(A) 0.75

(Q) What would you report for `CN1CCN(CCCNC(=O)c2cn3c4cc5c(cc4oc4c(NCCCN6CCOCC6)c(F)cc(c2=O)c43)c(=O)c2ccccc25)CC1` ?
(A) 1.75

(Q) What would you report for CN(C)CCCCNC(=O)c1cn2c3cc4c(=O)c5ccccc5c(=O)c4cc3oc3c(NCCC4CCCN4C)c(F)cc(c1=O)c32 (centres unmarked) ?
(A) 0.9

(Q) What would you report for `NC(N)=NCCCCNC(=O)c1cn2c3c(c(N4CC[C@@H](N)C4)c(F)cc3c1=O)Oc1cc3ccccc3cc1-2` ?
(A) 0.18

(Q) What would you report for `CN(C)CCCCNC(=O)c1cn2c3cc4c(=O)c5ccccc5c(=O)c4cc3oc3c(NCCCN4CCOCC4)c(F)cc(c1=O)c32` ?
(A) 1.75

(Q) What would you report for NC1CCN(c2c(F)cc3c(=O)c(C(=O)O)cn4c5cc6c(=O)c7ccccc7c(=O)c6cc5oc2c34)C1 (centres unmarked) ?
(A) 0.25

(Q) What would you report for CN1CCCC1CCNC(=O)c1cn2c3c(c(N4CCC(NC(=O)OC(C)(C)C)C4)c(F)cc3c1=O)Oc1cc3c(cc1-2)oc1ccccc13 (centres unmarked) ?
(A) 0.75

(Q) What would you report for `O=C(NCCN1CCOCC1)c1cn2c3cc4c(cc3oc3c(NCCN5CCCC5)c(F)cc(c1=O)c32)c(=O)c1ccccc14` ?
(A) 0.75

(Q) What would you report for CN1CCN(CCCNC(=O)c2cn3c4c(c(N5CCC(N)C5)c(F)c(N)c4c2=O)Oc2cc4ccccc4cc2-3)CC1 (centres unmarked) ?
(A) 1.75
